The reported numbers originate from paper PMC10252594.

Assay: Dosage of RM-581 in tumors and plasma (LC-MS/MS)
Format: in vivo, mice
Settings: nude, mouse, tumor; PO, 3 h after last treatment; read-out: RM-581 in Tumor
Measure Name: concentration at 3 h

• C#C[C@]1(O)CC[C@H]2[C@@H]3CCc4cc(OC)c(N5CCN(C(=O)[C@@H]6CCCN6C(=O)c6ccc7ccccc7n6)CC5)cc4[C@H]3CC[C@@]21C = 50 ng/g

====

Tested on: LAPC-4 cells
Assay: LAPC-4 cell viability proliferation and combination index assays (MTS, 6 days)
Type: cell-based, human
Conditions: Homo sapiens, LAPC4, 144 h, LAPC-4, six days, slightly different culture conditions; read-out: IC50, single experiments (Figure 3)
Measure Name: IC50 (nM)

• C#C[C@]1(O)CC[C@H]2[C@@H]3CCc4cc(OC)c(N5CCN(C(=O)[C@@H]6CCCN6C(=O)c6ccc7ccccc7n6)CC5)cc4[C@H]3CC[C@@]21C = 510

====

Test system: LAPC-4 cells
Assay: LAPC-4 cell viability proliferation and combination index assays (MTS, 6 days)
Assay type: cell-based, human
Conditions: Homo sapiens, LAPC4, 144 h, LAPC-4, six days; single drugs and 1:1 combinations; read-out: IC50 (Figure 2B)
pIC50: −log10 of the molar value.
Listing of recorded pIC50 by entry.
Measure Name: pIC50

- C[C@]12CC[C@H](O)CC1=CC[C@@H]1[C@@H]2CC[C@]2(C)C(c3cccnc3)=CC[C@@H]12 [abiraterone, reference compound]: 4.94
- C#C[C@]1(O)CC[C@H]2[C@@H]3CCc4cc(OC)c(N5CCN(C(=O)[C@@H]6CCCN6C(=O)c6ccc7ccccc7n6)CC5)cc4[C@H]3CC[C@@]21C: 6.25

====

Tested on: VCaP
Experiment: PCa cell viability proliferation screening (MTS), VCaP
Assay type: cell-based
Details: Homo sapiens, 168 h, AR positive, seven days
pIC50: −log10 of the molar value.
Measure Name: pIC50

* C#C[C@]1(O)CC[C@H]2[C@@H]3CCc4cc(OC)c(N5CCN(C(=O)[C@@H]6CCCN6C(=O)c6ccc7ccccc7n6)CC5)cc4[C@H]3CC[C@@]21C [RM-581] | 5.24

====

Experiment: Dosage of RM-581 in tumors and plasma (LC-MS/MS)
Type: in vivo, mice
Settings: nude, mouse, tumor/plasma; 10 mg/kg PO; ng/g = ng/mL assumed; read-out: Concentration Index (Tumor/Plasma)
Measure Name: Kp at 3 h

* C#C[C@]1(O)CC[C@H]2[C@@H]3CCc4cc(OC)c(N5CCN(C(=O)[C@@H]6CCCN6C(=O)c6ccc7ccccc7n6)CC5)cc4[C@H]3CC[C@@]21C | 10

====

Test: Dosage of RM-581 in tumors and plasma (LC-MS/MS)
Assay type: in vivo, mice
Details: nude, mouse, tumor; 30 mg/kg PO, 3 h after last treatment; read-out: RM-581 in Tumor
Measure Name: concentration at 3 h (ng/g)

• C#C[C@]1(O)CC[C@H]2[C@@H]3CCc4cc(OC)c(N5CCN(C(=O)[C@@H]6CCCN6C(=O)c6ccc7ccccc7n6)CC5)cc4[C@H]3CC[C@@]21C = 940

====

Tested on: LAPC-4 cells
Experiment: LAPC-4 cell viability proliferation and combination index assays (MTS, 6 days)
Type: cell-based, human
Conditions: Homo sapiens, LAPC4, LAPC-4; read-out: IC50 in LAPC-4 cells, approximate summary value
pIC50: −log10 of the molar value.
Measure Name: pIC50

- C#C[C@]1(O)CC[C@H]2[C@@H]3CCc4cc(OC)c(N5CCN(C(=O)[C@@H]6CCCN6C(=O)c6ccc7ccccc7n6)CC5)cc4[C@H]3CC[C@@]21C [RM-581]: ~6.30

====

Test: Dosage of RM-581 in tumors and plasma (LC-MS/MS)
Assay type: in vivo, mice
Conditions: nude, mouse, tumor/plasma; 3 mg/kg PO; ng/g = ng/mL assumed; read-out: Concentration Index (Tumor/Plasma)
Measure Name: Kp at 3 h

- C#C[C@]1(O)CC[C@H]2[C@@H]3CCc4cc(OC)c(N5CCN(C(=O)[C@@H]6CCCN6C(=O)c6ccc7ccccc7n6)CC5)cc4[C@H]3CC[C@@]21C [RM-581]: 3.3

====

Test: Dosage of RM-581 in tumors and plasma (LC-MS/MS)
Format: in vivo, mice
Settings: nude, mouse, plasma; 30 mg/kg PO, 3 h after last treatment; read-out: RM-581 in Plasma
Measure Name: concentration at 3 h (ng/mL)

* C#C[C@]1(O)CC[C@H]2[C@@H]3CCc4cc(OC)c(N5CCN(C(=O)[C@@H]6CCCN6C(=O)c6ccc7ccccc7n6)CC5)cc4[C@H]3CC[C@@]21C | 171
